- System: HEL cells
- test.description: Cytotoxicity, minimum cytotoxic concentration (cell morphology) in HEL cells
- assay.context: Table 2; minimum concentration causing microscopically detectable alteration of cell morphology
readout: Cytotoxicity HEL cells MCC

Consider the worked cases shown below.
# CCCCCOC(=O)[C@@H](NP1(=O)CO[C@@H](Cn2cnc3c(N)ncnc32)CO1)C(C)C (stereo partly shown) with HEL cells: Cytotoxicity HEL cells MCC is 4.40

# CCCCCOC(=O)C[C@H](NP1(=O)CO[C@H](Cn2ccc(N)nc2=O)CO1)C(=O)OCCCCC (stereo partly shown) with HEL cells: Cytotoxicity HEL cells MCC is >19

# CCCCCOC(=O)[C@H](CC(C)C)NP1(=O)CO[C@@H](Cn2cnc3c(N)ncnc32)CO1 (stereo partly shown) with HEL cells: Cytotoxicity HEL cells MCC is 4.27

Continuing:
# CCCCCOC(=O)C[C@H](NP1(=O)CO[C@H](Cn2cnc3c(N)ncnc32)CO1)C(=O)OCCCCC (stereo partly shown) with HEL cells: Cytotoxicity HEL cells MCC is >18.5

# CCCCCOC(=O)C[C@H](NP1(=O)CO[C@@H](Cn2ccc(N)nc2=O)CO1)C(=O)OCCCCC (stereo partly shown) with HEL cells: Cytotoxicity HEL cells MCC is 19.4

# CCCCCOC(=O)[C@H](CCSC)NP1(=O)CO[C@@H](Cn2cnc3c(N)ncnc32)CO1 (stereo partly shown) with HEL cells: Cytotoxicity HEL cells MCC is 4.11

# CCCCCOC(=O)CC[C@H](NP1(=O)CO[C@@H](Cn2cnc3c(N)ncnc32)CO1)C(=O)OCCCCC (stereo partly shown) with HEL cells: Cytotoxicity HEL cells MCC is 13.2
